- Test system: RSV Long strain
- assay: RSV CPE reduction assay
- Type: cell-based
- experimental.context: human respiratory syncytial virus, 144 h; CPE assay; HEp-2 cells infected with RSV Long strain, m.o.i. 0.01; 6 days; CCK-8 readout; read-out: EC50
pEC50: −log10 of the molar value.

molecule: [N-]=[N+]=N[C@]1(CO)O[C@@H](n2ccc(=O)[nH]c2=O)[C@H](F)[C@@H]1O [Compound 17, 4′-azido-2′-deoxy-2′-fluorouridine]
pEC50: < 4.00
--
molecule: COc1nc(N)nc2c1ncn2[C@@H]1O[C@@](CO)(N=[N+]=[N-])[C@@H](O)[C@H]1F [Compound 48]
pEC50: 5.00 to 6.00
--
molecule: CC(C)OC(=O)[C@H](C)NP(=O)(N[C@@H](C)C(=O)OC(C)C)OC[C@@]1(N=[N+]=[N-])O[C@@H](n2ccc(=O)[nH]c2=O)[C@H](O)[C@@H]1O [Compound 44]
pEC50: < 4.00
--
molecule: [N-]=[N+]=N[C@]1(CO)O[C@@H](n2ccc(N)nc2=O)C(F)(F)[C@@H]1O [Compound 1, 4′-azido-2′-deoxy-2′,2′-difluorocytidine]
pEC50: > 6.00
--
molecule: C[C@@H]1[C@H](n2ccc(=O)[nH]c2=O)O[C@@](CO)(N=[N+]=[N-])[C@H]1O [Compound 6]
pEC50: < 4.00
--
molecule: CC(C)OC(=O)[C@H](C)NP(=O)(OC[C@@]1(N=[N+]=[N-])O[C@@H](n2ccc(=O)[nH]c2=O)[C@@H](C)[C@@H]1O)Oc1ccccc1 (stereo partly drawn) [Compound 36]
pEC50: < 4.00
--
molecule: [N-]=[N+]=N[C@]1(CO)O[C@@H](n2ccc(N)nc2=O)[C@@H](O)[C@@H]1O [Compound 11, 4′-azidoarabinocytidine]
pEC50: > 6.00
--
molecule: CC(C)OC(=O)[C@H](C)NP(=O)(OC[C@@]1(N=[N+]=[N-])O[C@@H](n2ccc(=O)[nH]c2=O)[C@H](F)[C@@H]1O)Oc1ccccc1 (stereo partly drawn) [Compound 24]
pEC50: < 4.00
--
molecule: CC(C)OC(=O)[C@H](C)NP(=O)(N[C@@H](C)C(=O)OC(C)C)OC[C@@]1(N=[N+]=[N-])O[C@@H](n2ccc(N)nc2=O)C(F)(F)[C@@H]1O [Compound 33]
pEC50: > 6.00
--
molecule: C[C@]1(F)[C@H](n2ccc(=O)[nH]c2=O)O[C@@](CO)(N=[N+]=[N-])[C@H]1O [Compound 51]
pEC50: < 4.00
--
molecule: [N-]=[N+]=N[C@]1(CO)O[C@@H](n2ccc(=O)[nH]c2=O)[C@@H](F)[C@@H]1O [Compound 20]
pEC50: < 4.00
--
molecule: CC(C)OC(=O)[C@H](C)NP(=O)(OC[C@@]1(N=[N+]=[N-])O[C@@H](n2ccc(=O)[nH]c2=O)[C@@H](O)[C@@H]1O)Oc1ccccc1 (stereo partly drawn) [Compound 35]
pEC50: > 6.00
